Values compiled from patent US10954232B2.

Test System: ALK5 kinase (Homo sapiens)
Construct: GST; purchased Thermo Fisher Scientific Solutions
Protocol Notes: Activity inhibition test on ALK5 enzyme (LanthaScreen Eu binding kinase assay)
Measurement Parameters: kinase tracer 178, 60 minutes at room temperature
Entries annotated with measured IC50
Property Name: IC50 (nM)

1. Cc1cccc(-n2nc(C(=O)Nc3ccc(N)cc3)cc2-c2ccc3ncsc3c2)n1 | 1.1
2. Cc1cccc(-n2nc(C(=O)Nc3cnn(S(C)(=O)=O)c3)cc2-c2ccc3ncsc3c2)n1 | 1.3
3. CNS(=O)(=O)c1cccc(NC(=O)c2cc(-c3ccc4ncsc4c3)n(-c3cccc(C)n3)n2)c1 | 1.2

* * *

Test System: ALK5 kinase (Homo sapiens, UniProt P36897)
Construct: GST; purchased Thermo Fisher Scientific Solutions
Sequence (P36897 34-503): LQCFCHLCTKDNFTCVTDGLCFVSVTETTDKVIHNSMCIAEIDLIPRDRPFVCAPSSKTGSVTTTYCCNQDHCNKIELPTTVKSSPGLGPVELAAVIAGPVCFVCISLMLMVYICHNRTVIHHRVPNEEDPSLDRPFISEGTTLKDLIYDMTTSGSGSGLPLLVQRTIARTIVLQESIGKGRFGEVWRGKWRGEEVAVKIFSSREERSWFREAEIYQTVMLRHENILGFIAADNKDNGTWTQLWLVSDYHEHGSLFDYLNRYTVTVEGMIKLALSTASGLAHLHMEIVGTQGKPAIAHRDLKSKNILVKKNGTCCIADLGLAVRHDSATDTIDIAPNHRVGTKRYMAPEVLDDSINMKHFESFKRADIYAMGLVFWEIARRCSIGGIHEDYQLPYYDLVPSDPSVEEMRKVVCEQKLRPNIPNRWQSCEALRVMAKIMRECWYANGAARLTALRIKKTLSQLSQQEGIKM
Protocol Notes: Activity inhibition test on ALK5 enzyme (LanthaScreen Eu binding kinase assay)
Measurement Parameters: kinase tracer 178, 60 minutes at room temperature
Entries annotated with measured IC50
Property Name: IC50 (nM)

1) Cc1cccc(-n2nc(C(=O)Nc3ccc(N(C)CCN(C)C)cc3)cc2-c2ccc3ncsc3c2)n1 [Example 15] | 6.4
2) Cc1cccc(-n2nc(C(=O)Nc3ccnc(S(C)(=O)=O)c3)cc2-c2ccc3ncsc3c2)n1 [Example 70] | 4.6
3) Cc1cccc(-n2nc(C(=O)Nc3ccnc(Cl)c3)cc2-c2ccc3ncsc3c2)n1 [Example 74] | 2.3
4) Cc1cccc(-n2nc(C(=O)Nc3cccc(F)c3)cc2-c2ccc3ncsc3c2)n1 [Example 28] | 4.5
5) Cc1cccc(-n2nc(C(=O)Nc3cccc(S(=O)(=O)N(C)C)c3)cc2-c2ccc3ncsc3c2)n1 [Example 51] | 6.5
6) Cc1cccc(-n2nc(C(=O)Nc3ccc(NC4CC4)cc3)cc2-c2ccc3ncsc3c2)n1 [Example 88] | 3.5
7) COc1cccc(NC(=O)c2cc(-c3ccc4nccnc4c3)n(-c3cccc(C)n3)n2)c1 [Example 165] | 24
